Biological target: Nucleoprotein (Lymphocytic choriomeningitis virus (strain Armstrong)) (UniProt P09992)
Sequence (P09992 whole entry, looked up): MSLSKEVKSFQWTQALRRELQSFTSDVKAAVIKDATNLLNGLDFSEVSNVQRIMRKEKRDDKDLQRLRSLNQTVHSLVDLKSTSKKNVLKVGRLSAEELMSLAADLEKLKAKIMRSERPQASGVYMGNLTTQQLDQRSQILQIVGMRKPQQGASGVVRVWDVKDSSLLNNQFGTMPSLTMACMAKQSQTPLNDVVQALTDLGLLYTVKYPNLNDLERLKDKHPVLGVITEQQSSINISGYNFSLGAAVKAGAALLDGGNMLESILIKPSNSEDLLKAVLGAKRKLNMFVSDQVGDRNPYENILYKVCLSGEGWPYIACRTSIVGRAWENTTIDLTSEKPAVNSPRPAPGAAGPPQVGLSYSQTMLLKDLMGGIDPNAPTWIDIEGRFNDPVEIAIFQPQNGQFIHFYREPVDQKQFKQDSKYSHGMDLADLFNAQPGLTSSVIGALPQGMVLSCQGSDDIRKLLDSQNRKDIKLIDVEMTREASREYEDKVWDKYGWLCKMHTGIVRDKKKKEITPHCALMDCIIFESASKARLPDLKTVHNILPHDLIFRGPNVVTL
Experiment: qHTS for Inhibitors of the Functional Ribonucleoprotein Complex (vRNP) of Lymphocytic Choriomeningitis Arenaviruses (LCMV): LCMV Primary Screen - GLuc reporter signal (AID 1347086); also: nearly all actives have a fitted effect of over 70% in size
Conditions: LCMV minigenome vRNP cell assay, Gaussia luciferase reporter; series mostly up to 57.5 µM
Inconclusive results are not listed. Active and inactive are the calls of the source. Calls follow the shape of the full dose curve.
readout.label: outcome

compound=O=C(O)COc1ccccc1 readout_label=outcome experimental_result=inactive
compound=O=C(O)[C@@H](c1ccc(OCc2ccc3ccccc3n2)cc1)C1CCCC1 readout_label=outcome experimental_result=inactive
compound="CCOP(=O)(NC(C)C)Oc1ccc(SC)c(C)c1 (stereo not drawn)" readout_label=outcome experimental_result=inactive

====

Assay: Quantitative High-Throughput drug screen in 47 multiple myeloma cell lines against the NCATS MIPE library collection: OPM1_PLB cell viability assay (AID 1918989); also: nearly all actives have a fitted effect of over 40% in size
Conditions: CellTiter-Glo, 48 h; series mostly up to 45.8 µM
Results filed as inconclusive are left out. Active and inactive are the calls of the source. Calls follow the shape of the dose curve; as a rule, active = well fitted cell-killing curve with a large enough effect; inconclusive = small, poorly fitted or top-dose-only effect, or effect the other way; inactive = no such curve, though single readings can be large or run the other way.
Give your call using only these classes: Yes for active, No for inactive

Ask | Entry C=C[C@@H]1CN2CCC1C[C@H]2[C@H](O)c1ccnc2ccccc12 (stereo partly drawn) : call = ?
Reply | Yes

Ask | Record lookup: outcome of this test for CC(N[C@H]1C[C@H]1c1ccccc1)c1ccc2c(c1)OCCO2 (stereo partly drawn) ?
Reply | No

Ask | Kindly provide the recorded test outcome for the following compound: CC(C)(O)C(=O)Nc1ccc([N+](=O)[O-])c(C(F)(F)F)c1
Reply | Yes

Ask | Record request — test call for CCCCCC[C@H]1C(=O)O[C@H](C)[C@H](NC(=O)c2cccc(NC=O)c2O)C(=O)O[C@@H](C)[C@@H]1OC(=O)CC(C)C
Reply | Yes

Ask | Write down the call the test reported for this compound. Item: COCC1(CO)C(=O)C2CCN1CC2 (stereo not drawn)
Reply | Yes

====

Assay: Cell Viability - LYMP2-015 (AID 971);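 also: cells exposed to compound for 24 h; nearly all actives have a fitted effect of over 55% in size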
Conditions: LYMP2-015 lymphoblastoid cell viability; series mostly up to 92.2 µM
Records with an inconclusive call do not appear. Calls of active or inactive are those of the source. The call rests on the fitted dose curve; in most records, active means well fitted cell-killing curve with a large enough effect; inconclusive means small, poorly fitted or top-dose-only effect; inactive means flat fitted curve, though single readings scatter.
readout.label: outcome

smiles_data=CN(C)[C@@H]1C(=O)C(C(N)=O)=C(O)[C@@]2(O)C(=O)C3=C(O)c4c(O)cccc4[C@@](C)(O)[C@H]3[C@H](O)[C@@H]12 experimental_result=inactive
smiles_data=O=S(=O)(c1ccc(Cl)cc1)c1ccc(Cl)cc1 experimental_result=inactive
smiles_data=O=C(O)COc1ccccc1 experimental_result=inactive
smiles_data=CCOCCOC(C)=O experimental_result=inactive

====

System: MCC-13
Assay: qHTS assay to identify novel small-molecules to repurpose for Merkel cell carcinoma treatment (AID 1296009); also: nearly all actives have a fitted effect of over 60% in size
Settings: MCC and control cell lines, CellTiter-Glo viability, 72 h; series mostly up to 46 µM
Records with an inconclusive call do not appear. The source made the active and inactive calls. Calls follow the shape of the dose curve; as a rule, active = well fitted inhibition curve with a large enough effect; inconclusive = small, poorly fitted or top-dose-only effect; inactive = flat fitted curve, though single readings scatter.
The reply should name one outcome from YES (active), NO (inactive)

compound=O=c1cccc2n1CC1CNC[C@H]2C1 class=NO
compound=CCOC(=O)c1c(C(C#N)=CN)c2ccc(Cl)c(Cl)c2n1C class=NO
compound=Cc1cc(O)ccc1Cl class=NO
compound=CC[C@@]1(O)C(=O)OCc2c1cc1n(c2=O)Cc2cc3ccccc3nc2-1 class=YES

Attention now shifts to the item below.
Ask | For C[C@H]1CCCC=CC2C[C@H](O)C[C@@H]2[C@H](O)C=CC(=O)O1 (stereo not given in full) , which call appears in the assay record?
Reply | NO

The measured values listed here are drawn from PubChem BioAssay (NCATS).
